pIC50: −log10 of the molar value.
Test system UniProt:Q09472, pIC50 listed for each of the molecules.
property: pIC50

A. C1=CC2C=C3c4cc5c(cc4NCC[N+]3=CC2S1)OCO5 (stereo not given)
B. COc1cc2cc3[n+](cc2cc1OC)CCCOc1cc2c(cc1-3)OCO2
C. COc1cc2cc3[n+](cc2cc1OC)CCS(=O)(=O)c1cc2c(cc1-3)OCO2
Lookup: Method: rank(items above, key=pIC50, ascending=True) Give the labels in the order requested.
Found: C, A, B
(C: 4.95, A: 5.15, B: 5.43)

* * *

Test system Histone acetyltransferase p300 (Homo sapiens), pIC50 listed for each of the compounds.
pIC50: −log10 of the molar value.
property: pIC50

* C1=CC2C=C3c4cc5c(cc4OCC[N+]3=CC2S1)OCO5 (stereo not drawn) | 5.03

A. COc1ccc2cc3[n+](cc2c1OC)CCc1cc2c(cc1-3)OCO2 [BERBERINE CHLORIDE]
B. COc1cc2cc3[n+](cc2cc1OC)CCOc1cc2c(cc1-3)OCO2.[Cl-]
Lookup: Compare pIC50: is it lower for A or for B ? Please respond with the label that marks your chosen entry.
Found: A
(A: 5.05, B: 5.82)

* * *

- targetUnderTest: UniProt:Q09472
property: IC50 (µM)

P. COc1cc2cc3[n+](cc2cc1OC)CCN(C(C)=O)c1cc2c(cc1-3)OCO2
Q. COc1ccc2cc3[n+](cc2c1OC)CCNc1cc2c(cc1-3)OCO2
R. COc1cc2cc3[n+](cc2cc1OC)CCCNc1cc2c(cc1-3)OCO2
Lookup: Method: rank(items above, key=IC50, ascending=True) Give the labels in the order requested.
Found: Q, R, P
(Q: 6.78 µM, R: 9.69 µM, P: 17.5 µM)
